Data origin: paper PMC11187217

Number of colonies listing for selected compounds.
- System: Salmonella Typhimurium TA100
- Measurement Setup: TA100, ¼ MIC; ± SD
Give the figure by itself; no unit, no explanation.

Observe how each entry below is paired with its result.
1. CCCCCCCCCCCCCC(=O)N(CCCN(CCC[N+](C)(C)C)C(=O)CCCCCCCCCCCCC)CCC[N+](C)(C)C	199.0
2. CCCCCCCCCCCC(=O)N(CCCN(CCC[N+](C)(C)C)C(=O)CCCCCCCCCCC)CCC[N+](C)(C)C [2xC12MeCO3G3]	243.0
3. CCCCCCCCCCCCCCCC(=O)N(CCCN(CCC[N+](C)(C)C)C(=O)CCCCCCCCCCCCCCC)CCC[N+](C)(C)C [2xC16BrG3]	380.0
4. CCCCCCCCCCCCCCCC(=O)N(CCCN(CCC[N+](C)(C)C)C(=O)CCCCCCCCCCCCCCC)CCC[N+](C)(C)C [2xC16MeCO3G3]	398.0
5. CCCCCCCCCCCCCCCC(=O)N(CCCN(CCC[N+](C)(C)C)C(=O)CCCCCCCCCCCCCCC)CCC[N+](C)(C)C [2xC16LaG3]	197.7

Alright, here's another compound for you.
input: Please report the recorded Number of colonies for CCCCCCCCCCCC(=O)N(CCCN(CCC[N+](C)(C)C)C(=O)CCCCCCCCCCC)CCC[N+](C)(C)C [2xC12BrG3] .
output: 265.0

* * *

- Test system: Rhodotorula mucilaginosa ATCC 4056
- Assay Notes: MIC/MFC, microdilution method (modified CLSI M27)
- Assay type: cell-based
- Measurement Setup: R. mucilaginosa ATCC 4056; 90% growth inhibition, YPG, 28 °C, 24 h
- Protocol: Minimum inhibitory concentration (MIC) and minimum fungicidal concentration (MFC) values were determined based on the modified CLSI M27 protocol. The study was performed using the microdilution method on sterile 96-well titration plates. […] The minimum inhibitory concentration was determined at 90% growth inhibition. […]
Marks after values point to notes of the source that are not given here.
Minimum inhibitory concentration (MIC) listing for selected molecules.

input: Please report the recorded Minimum inhibitory concentration (MIC) for CCCCCCCCCCCCCCCC(=O)N(CCCN(CCC[N+](C)(C)C)C(=O)CCCCCCCCCCCCCCC)CCC[N+](C)(C)C [2xC16MeCO3G3] .
output: 640 640* µM

input: Please report the recorded Minimum inhibitory concentration (MIC) for CCCCCCCCCCCCCCCC(=O)N(CCCN(CCC[N+](C)(C)C)C(=O)CCCCCCCCCCCCCCC)CCC[N+](C)(C)C [2xC16BrG3] .
output: > 640 640* µM

input: Please report the recorded Minimum inhibitory concentration (MIC) for CCCCCCCCCCCC(=O)N(CCCN(CCC[N+](C)(C)C)C(=O)CCCCCCCCCCC)CCC[N+](C)(C)C [2xC12MeCO3G3] .
output: 320 320* µM

input: Please report the recorded Minimum inhibitory concentration (MIC) for CCCCCCCCCCCC(=O)N(CCCN(CCC[N+](C)(C)C)C(=O)CCCCCCCCCCC)CCC[N+](C)(C)C [2xC12BrG3] .
output: 10 10* µM

* * *

Mutagenicity ratio (MR) listing for selected compounds.
- Tested on: Salmonella Typhimurium TA100
- Measurement Setup: TA100, ¼ MIC
Give the figure by itself; no unit, no explanation.

Observe how each entry below is paired with its result.
1. CCCCCCCCCCCC(=O)N(CCCN(CCC[N+](C)(C)C)C(=O)CCCCCCCCCCC)CCC[N+](C)(C)C [2xC12BrG3]	0.95
2. CCCCCCCCCCCC(=O)N(CCCN(CCC[N+](C)(C)C)C(=O)CCCCCCCCCCC)CCC[N+](C)(C)C [2xC12MeCO3G3]	0.87
3. CCCCCCCCCCCCCC(=O)N(CCCN(CCC[N+](C)(C)C)C(=O)CCCCCCCCCCCCC)CCC[N+](C)(C)C [2xC14BrG3]	0.99
4. CCCCCCCCCCCCCCCC(=O)N(CCCN(CCC[N+](C)(C)C)C(=O)CCCCCCCCCCCCCCC)CCC[N+](C)(C)C [2xC16MeCO3G3]	1.43

Alright, here's another compound for you.
input: Please report the recorded Mutagenicity ratio (MR) for CCCCCCCCCCCCCCCC(=O)N(CCCN(CCC[N+](C)(C)C)C(=O)CCCCCCCCCCCCCCC)CCC[N+](C)(C)C [2xC16LaG3] .
output: 0.99

* * *

- Tested on: Salmonella Typhimurium TA98
- Assay Notes: Mutagenicity, Ames test
- Measurement Setup: TA98, ¼ MIC
Measured Property: Mutagenicity ratio (MR)

Observe how each entry below is paired with its result.
1) CCCCCCCCCCCC(=O)N(CCCN(CCC[N+](C)(C)C)C(=O)CCCCCCCCCCC)CCC[N+](C)(C)C [2xC12MeCO3G3]	1.57
2) CCCCCCCCCCCCCCCC(=O)N(CCCN(CCC[N+](C)(C)C)C(=O)CCCCCCCCCCCCCCC)CCC[N+](C)(C)C [2xC16LaG3]	1.12
3) CCCCCCCCCCCC(=O)N(CCCN(CCC[N+](C)(C)C)C(=O)CCCCCCCCCCC)CCC[N+](C)(C)C [2xC12BrG3]	0.82

input: Please report the recorded Mutagenicity ratio (MR) for CCCCCCCCCCCCCCCC(=O)N(CCCN(CCC[N+](C)(C)C)C(=O)CCCCCCCCCCCCCCC)CCC[N+](C)(C)C [2xC16MeCO3G3] .
output: 1.55

input: Please report the recorded Mutagenicity ratio (MR) for CCCCCCCCCCCCCCCC(=O)N(CCCN(CCC[N+](C)(C)C)C(=O)CCCCCCCCCCCCCCC)CCC[N+](C)(C)C [2xC16BrG3] .
output: 1.51

input: Please report the recorded Mutagenicity ratio (MR) for CCCCCCCCCCCCCC(=O)N(CCCN(CCC[N+](C)(C)C)C(=O)CCCCCCCCCCCCC)CCC[N+](C)(C)C [2xC14BrG3] .
output: 1.08

* * *

- Tested on: Salmonella Typhimurium TA98
- Assay Notes: Mutagenicity, Ames test
- Measurement Setup: TA98, ½ MIC; ± SD
Measured Property: Number of colonies
Give the figure by itself; no unit, no explanation.

1. CCCCCCCCCCCCCCCC(=O)N(CCCN(CCC[N+](C)(C)C)C(=O)CCCCCCCCCCCCCCC)CCC[N+](C)(C)C [2xC16BrG3]	42.0
2. CCCCCCCCCCCCCC(=O)N(CCCN(CCC[N+](C)(C)C)C(=O)CCCCCCCCCCCCC)CCC[N+](C)(C)C	48.0
3. CCCCCCCCCCCC(=O)N(CCCN(CCC[N+](C)(C)C)C(=O)CCCCCCCCCCC)CCC[N+](C)(C)C [2xC12MeCO3G3]	59.0

input: Please report the recorded Number of colonies for CCCCCCCCCCCCCCCC(=O)N(CCCN(CCC[N+](C)(C)C)C(=O)CCCCCCCCCCCCCCC)CCC[N+](C)(C)C [2xC16MeCO3G3] .
output: 42.0

input: Please report the recorded Number of colonies for CCCCCCCCCCCC(=O)N(CCCN(CCC[N+](C)(C)C)C(=O)CCCCCCCCCCC)CCC[N+](C)(C)C [2xC12BrG3] .
output: 174.5

input: Please report the recorded Number of colonies for CCCCCCCCCCCCCCCC(=O)N(CCCN(CCC[N+](C)(C)C)C(=O)CCCCCCCCCCCCCCC)CCC[N+](C)(C)C [2xC16LaG3] .
output: 37.0

* * *

- Tested on: Salmonella Typhimurium TA98
- Assay Notes: Mutagenicity, Ames test
- Measurement Setup: TA98, ¼ MIC; ± SD
Measured Property: Number of colonies
Give the figure by itself; no unit, no explanation.

1) CCCCCCCCCCCC(=O)N(CCCN(CCC[N+](C)(C)C)C(=O)CCCCCCCCCCC)CCC[N+](C)(C)C [2xC12MeCO3G3]	35.8

input: Please report the recorded Number of colonies for CCCCCCCCCCCCCCCC(=O)N(CCCN(CCC[N+](C)(C)C)C(=O)CCCCCCCCCCCCCCC)CCC[N+](C)(C)C [2xC16BrG3] .
output: 34.3

input: Please report the recorded Number of colonies for CCCCCCCCCCCCCCCC(=O)N(CCCN(CCC[N+](C)(C)C)C(=O)CCCCCCCCCCCCCCC)CCC[N+](C)(C)C [2xC16MeCO3G3] .
output: 35.3

input: Please report the recorded Number of colonies for CCCCCCCCCCCCCCCC(=O)N(CCCN(CCC[N+](C)(C)C)C(=O)CCCCCCCCCCCCCCC)CCC[N+](C)(C)C [2xC16LaG3] .
output: 30.7

input: Please report the recorded Number of colonies for CCCCCCCCCCCCCC(=O)N(CCCN(CCC[N+](C)(C)C)C(=O)CCCCCCCCCCCCC)CCC[N+](C)(C)C .
output: 29.7

input: Please report the recorded Number of colonies for CCCCCCCCCCCC(=O)N(CCCN(CCC[N+](C)(C)C)C(=O)CCCCCCCCCCC)CCC[N+](C)(C)C [2xC12BrG3] .
output: 18.7
